target: FGFR4 (Homo sapiens (Human)); assay: HTRF KinEASE-TK kinase assay, FGFR4; format: biochemical; details: read-out: % FGFR4 Remaining activity vs DMSO (10 μM, 3 h)
Sequence (P22455 22-802): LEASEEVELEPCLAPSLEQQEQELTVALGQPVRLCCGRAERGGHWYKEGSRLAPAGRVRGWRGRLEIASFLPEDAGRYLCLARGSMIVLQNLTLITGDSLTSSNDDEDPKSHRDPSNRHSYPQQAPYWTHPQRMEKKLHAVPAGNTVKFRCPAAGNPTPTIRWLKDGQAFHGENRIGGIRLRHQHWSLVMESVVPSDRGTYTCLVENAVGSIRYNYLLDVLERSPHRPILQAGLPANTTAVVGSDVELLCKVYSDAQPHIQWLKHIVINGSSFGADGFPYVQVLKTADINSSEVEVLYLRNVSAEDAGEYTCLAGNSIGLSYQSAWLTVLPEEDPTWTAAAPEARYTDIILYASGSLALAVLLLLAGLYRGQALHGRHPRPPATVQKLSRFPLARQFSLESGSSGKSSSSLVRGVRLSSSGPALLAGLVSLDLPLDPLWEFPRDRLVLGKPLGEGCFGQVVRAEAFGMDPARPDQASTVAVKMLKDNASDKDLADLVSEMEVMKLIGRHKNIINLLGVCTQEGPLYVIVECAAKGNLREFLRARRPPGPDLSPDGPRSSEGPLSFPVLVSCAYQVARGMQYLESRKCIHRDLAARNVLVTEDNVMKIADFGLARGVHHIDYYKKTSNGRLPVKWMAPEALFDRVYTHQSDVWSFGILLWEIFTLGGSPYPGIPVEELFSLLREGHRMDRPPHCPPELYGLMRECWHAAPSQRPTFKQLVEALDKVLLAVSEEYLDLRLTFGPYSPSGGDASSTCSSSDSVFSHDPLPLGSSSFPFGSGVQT
Reported remaining activity at 10 µM is given for each of the following compounds.

| compound | remaining activity at 10 µM |
| --- | --- |
| Nc1ncnc2c1c(-c1ccc(Oc3ccccc3)cc1)nn2C1CCN(S(=O)(=O)c2c(F)c(F)c(F)c(F)c2OC(F)F)C1 (stereo in doubt) | < 50% |
| CS(=O)(=O)c1c(F)c(F)c(F)c(F)c1C(=O)NCCn1nc(-c2ccc(Oc3ccccc3)cc2)c2c(N)ncnc21 | < 50% |
| COCCOc1ccc(Nc2ncc(F)c(Nc3cccc(NS(=O)(=O)c4c(F)c(F)c(F)c(F)c4C(F)(F)F)c3)n2)cc1 | < 50% |
| COCCOc1ccc(Nc2ncc(F)c(NCCCNS(=O)(=O)c3c(F)c(F)c(F)c(F)c3OC(F)F)n2)cc1 | < 50% |
| CN(C)S(=O)(=O)c1c(F)c(F)c(F)c(F)c1C(=O)N1CCC[C@@H](n2nc(-c3ccc(Oc4ccccc4)cc3)c3c(N)ncnc32)C1 | > 90% |
| COCCOc1ccc(Nc2ncc(F)c(NCCCNS(=O)(=O)c3c(F)c(F)c(F)c(F)c3C(F)F)n2)cc1 | < 50% |

====

Reported remaining activity at 1 µM is given for each of the following compounds.
target: UniProtKB Q06187; assay: HTRF KinEASE-TK kinase assay, BTK; type: biochemical; conditions: 1 μM compound, 3 h preincubation; read-out: % BTK Remaining activity vs DMSO (1 μM, 3 h)
assay readout: remaining activity at 1 µM

| compound | meas value |
| --- | --- |
| Nc1ncnc2c1c(-c1ccc(Oc3ccccc3)cc1)nn2C1CCN(S(=O)(=O)c2c(F)c(F)c(F)c(F)c2OC(F)F)C1 (stereo in doubt) [Compound I-26] | < 50% |
| CS(=O)(=O)c1c(F)c(F)c(F)c(F)c1C(=O)NCCCn1nc(-c2ccc(Oc3ccccc3)cc2)c2c(N)ncnc21 [Compound I-39] | < 50% |
| C[S+]([O-])c1c(F)c(F)c(F)c(F)c1Nc1cc2c(Nc3ccc(F)c(Cl)c3)ncnc2cc1O[C@H]1CCOC1 (some centres unmarked) [Compound I-4] | > 90% |
| COCCOc1ccc(Nc2ncc(F)c(Nc3cccc(NC(=O)c4c(F)c(F)c(F)c(F)c4S(=O)(=O)N(C)C)c3)n2)cc1 [Compound I-59] | < 50% |
| CS(=O)(=O)c1c(F)c(F)c(F)c(F)c1C(=O)Nc1cc2c(Nc3ccc(F)c(Cl)c3)ncnc2cc1O[C@H]1CCOC1 [Compound I-5] | < 50% |
| CN(C)S(=O)(=O)c1c(F)c(F)c(F)c(F)c1C(=O)NCCn1nc(-c2ccc(Oc3ccccc3)cc2)c2c(N)ncnc21 [Compound I-40] | < 50% |
| NS(=O)(=O)c1c(F)c(F)c(F)c(F)c1C(=O)NCCNc1ncnc2[nH]ccc12 [Compound I-48] | < 50% |
| COCCOc1ccc(Nc2ncc(F)c(Nc3cccc(Nc4c(F)c(F)c(F)c(F)c4[S@+](C)[O-])c3)n2)cc1 (stereo in doubt) [Compound I-63] | < 50% |
| CN(C)S(=O)(=O)c1c(F)c(F)c(F)c(F)c1C(=O)N1CC(n2nc(-c3ccc(Oc4ccccc4)cc3)c3c(N)ncnc32)C1 [Compound I-29] | < 50% |
| C[S@+]([O-])c1c(F)c(F)c(F)c(F)c1C(=O)Nc1ncnc2[nH]ccc12 (racemic) [Compound I-46] | 50 to 90% |
| CS(=O)(=O)c1c(F)c(F)c(F)c(F)c1C(=O)n1ccc2c(N)ncnc21 [Compound I-49] | 50 to 90% |

====

Reported remaining activity at 1 µM is given for each of the following molecules.
biological target: JAK3 (Homo sapiens (Human)); test: HTRF KinEASE-TK kinase assay, JAK3; type: biochemical; details: read-out: % JAK3 Remaining activity vs DMSO (1 μM, 3 h)
Sequence (P52333 781-1124): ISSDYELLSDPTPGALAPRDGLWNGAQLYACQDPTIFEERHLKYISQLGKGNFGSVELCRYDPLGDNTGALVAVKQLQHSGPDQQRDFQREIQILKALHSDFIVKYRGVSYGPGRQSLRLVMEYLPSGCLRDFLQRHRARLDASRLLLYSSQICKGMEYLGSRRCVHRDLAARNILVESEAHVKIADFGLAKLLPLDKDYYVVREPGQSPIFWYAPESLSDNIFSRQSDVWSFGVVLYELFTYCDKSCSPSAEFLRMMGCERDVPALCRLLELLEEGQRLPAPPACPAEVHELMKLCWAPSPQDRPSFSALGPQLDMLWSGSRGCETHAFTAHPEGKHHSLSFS

| molecule | remaining activity at 1 µM |
| --- | --- |
| CS(=O)(=O)c1c(F)c(F)c(F)c(F)c1C(=O)NCCNc1ncnc2[nH]ccc12 | < 50% |
| O=S(=O)(Nc1cc2c(Nc3ccc(F)c(Cl)c3)ncnc2cc1O[C@H]1CCOC1)c1c(F)c(F)c(F)c(F)c1C(F)(F)F | 50 to 90% |
| CS(=O)(=O)c1c(F)c(F)c(F)c(F)c1CNCCNc1ncnc2[nH]ccc12 | < 50% |
| COCCOc1ccc(Nc2ncc(F)c(Nc3cccc(Nc4c(F)c(F)c(F)c(F)c4[S@+](C)[O-])c3)n2)cc1 (stereo in doubt) | > 90% |
| COCCOc1ccc(Nc2ncc(F)c(NCCCNS(=O)(=O)c3c(F)c(F)c(F)c(F)c3OC(F)F)n2)cc1 | < 50% |
| COCCOc1ccc(Nc2ncc(F)c(Nc3cccc(Nc4c(F)c(F)c(F)c(F)c4S(C)(=O)=O)c3)n2)cc1 | 50 to 90% |
| COCCOc1ccc(Nc2ncc(F)c(Nc3cccc(NC(=O)c4c(F)c(F)c(F)c(F)c4S(=O)(=O)N(C)C)c3)n2)cc1 | 50 to 90% |

====

biological target: EGFR (Homo sapiens (Human)); experiment: A549 cell lysis and immunoassay, phospho-EGFR (Y1068) inhibition; format: cell-based; design: key: X: EGFR bound and autophosphoration of EGFR inhibited in cells; settings: A549 cells, 1 μM
Sequence (P00533 25-1210): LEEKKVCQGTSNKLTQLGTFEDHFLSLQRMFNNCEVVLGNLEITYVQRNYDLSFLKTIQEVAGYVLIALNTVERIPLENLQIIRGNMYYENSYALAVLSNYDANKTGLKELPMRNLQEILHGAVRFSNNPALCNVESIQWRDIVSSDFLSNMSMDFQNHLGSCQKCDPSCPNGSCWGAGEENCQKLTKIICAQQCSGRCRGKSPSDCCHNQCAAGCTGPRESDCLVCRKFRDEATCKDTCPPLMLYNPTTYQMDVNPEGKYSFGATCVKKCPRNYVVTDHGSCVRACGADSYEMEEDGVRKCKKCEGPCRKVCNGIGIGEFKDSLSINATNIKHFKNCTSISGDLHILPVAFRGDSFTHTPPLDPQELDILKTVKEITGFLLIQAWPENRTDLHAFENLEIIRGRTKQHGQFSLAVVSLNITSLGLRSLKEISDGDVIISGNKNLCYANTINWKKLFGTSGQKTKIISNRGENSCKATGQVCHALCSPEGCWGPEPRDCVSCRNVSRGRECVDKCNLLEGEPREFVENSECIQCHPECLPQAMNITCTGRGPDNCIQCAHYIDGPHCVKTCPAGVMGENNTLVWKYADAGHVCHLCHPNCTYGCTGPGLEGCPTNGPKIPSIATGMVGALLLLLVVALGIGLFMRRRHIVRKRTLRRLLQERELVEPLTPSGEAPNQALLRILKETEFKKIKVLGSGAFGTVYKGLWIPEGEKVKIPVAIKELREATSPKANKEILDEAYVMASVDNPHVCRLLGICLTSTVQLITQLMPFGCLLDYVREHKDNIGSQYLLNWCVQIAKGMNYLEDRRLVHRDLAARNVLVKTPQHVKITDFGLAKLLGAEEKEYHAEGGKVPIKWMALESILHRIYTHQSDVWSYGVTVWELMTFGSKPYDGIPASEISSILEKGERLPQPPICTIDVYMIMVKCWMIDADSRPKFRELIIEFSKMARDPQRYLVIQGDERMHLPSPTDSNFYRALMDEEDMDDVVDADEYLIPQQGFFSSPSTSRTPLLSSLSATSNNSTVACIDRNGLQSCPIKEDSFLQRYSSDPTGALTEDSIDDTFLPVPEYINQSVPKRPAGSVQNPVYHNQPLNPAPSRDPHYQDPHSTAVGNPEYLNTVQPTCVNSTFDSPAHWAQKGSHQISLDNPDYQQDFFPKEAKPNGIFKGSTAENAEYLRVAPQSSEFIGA
assay readout: pEGFR inhibition (A549, 1 μM, 24 h)

| compound | assay readout | meas value |
| --- | --- | --- |
| C[S@+]([O-])c1c(F)c(F)c(F)c(F)c1C(=O)N1CC(n2nc(-c3ccc(Oc4ccccc4)cc3)c3c(N)ncnc32)C1 (racemic) | pEGFR inhibition (A549, 1 μM, 24 h) | X |
| COCCOc1ccc(Nc2ncc(F)c(Nc3cccc(Nc4c(F)c(F)c(F)c(F)c4S(C)(=O)=O)c3)n2)cc1 | pEGFR inhibition (A549, 1 μM, 24 h) | X |
| C[S+]([O-])c1c(F)c(F)c(F)c(F)c1Nc1cc2c(Nc3ccc(F)c(Cl)c3)ncnc2cc1O[C@H]1CCOC1 (stereo partly drawn) | pEGFR inhibition (A549, 1 μM, 24 h) | X |

====

Reported remaining activity at 1 µM is given for each of the following compounds.
target: BTK (Homo sapiens (Human)); assay: HTRF KinEASE-TK kinase assay, BTK; type: biochemical; conditions: 1 μM compound, 3 h preincubation; read-out: % BTK Remaining activity vs DMSO (1 μM, 3 h)
Sequence (Q06187 whole entry): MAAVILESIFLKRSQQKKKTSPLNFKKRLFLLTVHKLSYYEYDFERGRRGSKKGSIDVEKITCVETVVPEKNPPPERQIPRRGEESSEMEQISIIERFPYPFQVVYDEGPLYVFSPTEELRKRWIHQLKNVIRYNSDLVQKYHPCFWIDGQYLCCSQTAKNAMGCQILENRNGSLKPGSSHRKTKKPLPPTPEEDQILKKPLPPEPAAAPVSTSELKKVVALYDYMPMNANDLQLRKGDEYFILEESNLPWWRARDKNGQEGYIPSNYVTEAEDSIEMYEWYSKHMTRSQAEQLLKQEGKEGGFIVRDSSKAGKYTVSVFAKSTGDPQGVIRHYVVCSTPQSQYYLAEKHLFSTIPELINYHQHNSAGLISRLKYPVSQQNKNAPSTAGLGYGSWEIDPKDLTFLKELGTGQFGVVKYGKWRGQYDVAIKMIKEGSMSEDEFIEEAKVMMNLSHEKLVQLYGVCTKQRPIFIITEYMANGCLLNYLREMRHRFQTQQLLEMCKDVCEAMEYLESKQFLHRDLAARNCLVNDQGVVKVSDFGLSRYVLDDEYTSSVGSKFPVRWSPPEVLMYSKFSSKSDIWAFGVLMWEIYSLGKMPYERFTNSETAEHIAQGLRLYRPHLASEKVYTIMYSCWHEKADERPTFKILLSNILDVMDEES

| compound | remaining activity at 1 µM |
| --- | --- |
| C[S+]([O-])c1c(F)c(F)c(F)c(F)c1C(=O)Nc1cc2c(Nc3ccc(F)c(Cl)c3)ncnc2cc1OC1CCOC1 (centres unmarked) [Compound I-3] | 50 to 90% |
| CS(=O)(=O)c1c(F)c(F)c(F)c(F)c1C(=O)N1CC(n2nc(-c3ccc(Oc4ccccc4)cc3)c3c(N)ncnc32)C1 [Compound I-27] | < 50% |
| COCCOc1ccc(Nc2ncc(F)c(NCCCNS(=O)(=O)c3c(F)c(F)c(F)c(F)c3CF)n2)cc1 [Compound I-56] | < 50% |
| Nc1ncnc2c1c(-c1ccc(Oc3ccccc3)cc1)nn2CCCNC(=O)c1c(F)c(F)c(F)c(F)c1S(N)(=O)=O [Compound I-34] | < 50% |
| COCCOc1ccc(Nc2ncc(F)c(Nc3cccc(NC(=O)c4c(F)c(F)c(F)c(F)c4[S@+](C)[O-])c3)n2)cc1 (stereo in doubt) [Compound I-62] | < 50% |
| COCCOc1ccc(Nc2ncc(F)c(Nc3cccc(NC(=O)c4c(F)c(F)c(F)c(F)c4S(C)(=O)=O)c3)n2)cc1 [Compound I-61] | < 50% |
| Nc1ncnc2c1c(-c1ccc(Oc3ccccc3)cc1)nn2CCNS(=O)(=O)c1c(F)c(F)c(F)c(F)c1C(F)F [Compound I-22] | < 50% |
| CS(=O)(=O)c1c(F)c(F)c(F)c(F)c1CNCCNc1ncnc2[nH]ccc12 [Compound I-50] | < 50% |
| CS(=O)(=O)c1c(F)c(F)c(F)c(F)c1CNCCn1nc(-c2ccc(Oc3ccccc3)cc2)c2c(N)ncnc21 [Compound I-44] | < 50% |
| Nc1ncnc2c1c(-c1ccc(Oc3ccccc3)cc1)nn2[C@@H]1CCN(S(=O)(=O)c2c(F)c(F)c(F)c(F)c2OCF)C1 [Compound I-24] | < 50% |
| CN(CCn1nc(-c2ccc(Oc3ccccc3)cc2)c2c(N)ncnc21)c1c(F)c(F)c(F)c(F)c1S(C)(=O)=O [Compound I-43] | > 90% |
| COCCOc1ccc(Nc2ncc(F)c(Nc3cccc(NS(=O)(=O)c4c(F)c(F)c(F)c(F)c4C(F)(F)F)c3)n2)cc1 [Compound I-53] | < 50% |
| CN(CCn1nc(-c2ccc(Oc3ccccc3)cc2)c2c(N)ncnc21)C(=O)c1c(F)c(F)c(F)c(F)c1S(=O)(=O)N(C)C [Compound I-30] | < 50% |
| Nc1ncnc2c1c(-c1ccc(Oc3ccccc3)cc1)nn2CCNS(=O)(=O)c1c(F)c(F)c(F)c(F)c1OCF [Compound I-25] | < 50% |
| CS(=O)(=O)c1c(F)c(F)c(F)c(F)c1Nc1cc2c(Nc3ccc(F)c(Cl)c3)ncnc2cc1O[C@H]1CCOC1 [Compound I-2] | > 90% |
| COCCOc1ccc(Nc2ncc(F)c(NCCCNS(=O)(=O)c3c(F)c(F)c(F)c(F)c3C(F)F)n2)cc1 [Compound I-52] | < 50% |
| Nc1ncnc2c1c(-c1ccc(Oc3ccccc3)cc1)nn2CCNC(=O)c1c(F)c(F)c(F)c(F)c1S(N)(=O)=O [Compound I-42] | < 50% |
| CN(CCn1nc(-c2ccc(Oc3ccccc3)cc2)c2c(N)ncnc21)C(=O)c1c(F)c(F)c(F)c(F)c1S(C)(=O)=O [Compound I-28] | < 50% |
| COc1c(F)c(F)c(F)c(F)c1S(=O)(=O)n1nc(-c2ccc(Oc3ccccc3)cc2)c2c(N)ncnc21 [Compound I-23] | < 50% |
| CN(CCn1nc(-c2ccc(Oc3ccccc3)cc2)c2c(N)ncnc21)C(=O)c1c(F)c(F)c(F)c(F)c1S(N)(=O)=O [Compound I-33] | < 50% |
| COCCOc1ccc(Nc2ncc(F)c(NCCCNS(=O)(=O)c3c(F)c(F)c(F)c(F)c3OC(F)F)n2)cc1 [Compound I-55] | < 50% |
| COCCOc1ccc(Nc2ncc(F)c(Nc3cccc(NS(=O)(=O)c4c(F)c(F)c(F)c(F)c4C(F)F)c3)n2)cc1 [Compound I-51] | 50 to 90% |
| C[S@+]([O-])c1c(F)c(F)c(F)c(F)c1C(=O)N1CC(n2nc(-c3ccc(Oc4ccccc4)cc3)c3c(N)ncnc32)C1 (racemic) [Compound I-37] | < 50% |
| Nc1ncnc2c1c(-c1ccc(Oc3ccccc3)cc1)nn2[C@@H]1CCCN(C(=O)c2c(F)c(F)c(F)c(F)c2S(N)(=O)=O)C1 [Compound I-35] | < 50% |
| CN(C)S(=O)(=O)c1c(F)c(F)c(F)c(F)c1C(=O)NCCCn1nc(-c2ccc(Oc3ccccc3)cc2)c2c(N)ncnc21 [Compound I-41] | < 50% |
| O=S(=O)(Nc1cc2c(Nc3ccc(F)c(Cl)c3)ncnc2cc1O[C@H]1CCOC1)c1c(F)c(F)c(F)c(F)c1C(F)(F)F [Compound I-1] | 50 to 90% |
